These measurements were taken from the supplement of paper PMC6757056.

B1: library; a variant is named by its letters at N, in order (parent)
chain: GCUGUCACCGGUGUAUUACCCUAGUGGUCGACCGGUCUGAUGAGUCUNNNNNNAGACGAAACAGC

variants of: B1; experiment: normalized RNA/DNA level with ligand (relative to sTRSVctl = 100) (log10 (% of sTRSVctl)); ligand: hypoxanthine (xanthine aptamer); higher = less ribozyme self-cleavage, higher mRNA level; conditions: ligand concentration (+) RNA-Seq: 5 mM, HEK293T, reporter: mCherry (pCS4076), ligand present: yes
QUANTITY_MEASURED: normalized RNA/DNA level with ligand (log10)
Write no unit; give the number alone.

Check out these entries, answers already filled in.
{"MUTANT_LABEL": "GUUAGC", "MEASURED_VALUE": 1.91}
{"MUTANT_LABEL": "UGUCGC", "MEASURED_VALUE": 1.93}
{"MUTANT_LABEL": "AUCUGA", "MEASURED_VALUE": 1.96}

The variant identified as CAUUCG registered its normalized RNA/DNA level with ligand (log10) at 1.94

The variant identified as UGUGUA registered its normalized RNA/DNA level with ligand (log10) at 1.92

The variant identified as UUCGUU registered its normalized RNA/DNA level with ligand (log10) at 1.94
